Numbers sourced from patent US10662164B2.

MIC values for the compounds below.
Tested on: S. aureus VRS2
Test: MIC determination
Type: cell-based
Conditions: Staphylococcus aureus; vancomycin-resistant MRSA (vanA) isolate from Pennsylvania; Tables 1 and 5; read-out: MIC
Numeric only. Scale: µg/mL

The cases that follow already have their MIC on record.
| compound | propertyMeasured | scaleUnit | readoutValue |
| --- | --- | --- | --- |
| C#Cc1c[nH]nc1-c1nc(-c2ccc(Oc3ccc(C(F)(F)F)cc3)cc2)no1 [Compound 66b] | MIC | µg/mL | 0.5 |
| CC(=O)NC[C@H]1CN(c2ccc(N3CCOCC3)c(F)c2)C(=O)O1 [linezolid, reference compound] | MIC | µg/mL | 2 |
| [N-]=[N+]=Nc1cc(-c2noc(-c3ccc(O)cc3)n2)ccc1Oc1ccccc1 [Compound 53a] | MIC | µg/mL | 2 |
| Oc1ccc(-c2nc(-c3ccc(Oc4ccccc4)c(O)c3)no2)cc1 [Compound 51a] | MIC | µg/mL | 8 |
| Oc1ccc(-c2nc(-c3ccc(Oc4ccc(C(F)(F)F)cc4)cc3)no2)cc1 | MIC | µg/mL | 2 |

# context switch: different compound, same MIC
Data request: Given the compound Oc1ccc(-c2nc(-c3ccc(Oc4ccccc4)cc3Cl)no2)cc1 [Compound 52a] , what is its reported MIC?
Data returned: 2
